B1: TPR 5TU (parent)
chain: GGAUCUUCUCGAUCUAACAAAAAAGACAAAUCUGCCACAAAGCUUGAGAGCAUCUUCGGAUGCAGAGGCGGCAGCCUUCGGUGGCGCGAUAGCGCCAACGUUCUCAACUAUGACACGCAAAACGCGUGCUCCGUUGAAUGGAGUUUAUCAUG

Variants of: B1
Assay: polymerase ribozyme fitness, log enrichment relative to wild type (log ratio); higher = more active; in vitro selection for triplet polymerase activity
This sample holds only a part of the variants without activity.
Please provide measured polymerase ribozyme fitness (log ratio) for the entries that follow.
Numbers only.

Sample records with polymerase ribozyme fitness (log ratio):
1) U82C C95G U148C    -4.02
2) U15A C38U C54U C95G G141A    -1.16
3) C5U A91U    -3.99
4) G86A C123A U148G    -4.02
5) A19U G83U    -0.798
6) C87G G92C C105U    0.371
7) C54U U55A G86A C116G    -2.2
8) C14G A20C A40C A89C    -4.13

Need polymerase ribozyme fitness (log ratio) for each of these variants.
1. U45A A52G C116G
2. C51A C75U A98U

1. -3.56
2. -3.28

Data provenance is the RNAGym collection of RNA variant scans (doi:10.1073/pnas.2313332121).
